Experiment: Compound plasma levels in mice under Alzet pump infusion
Assay type: in vivo, C57BL/6 mice
Conditions: C57BL/6, mouse, other: Alzet pump infusion (perfused), 25 µg/hr, old (18-month) mice perfused 4 weeks at 0.5 μL/hr of 50 mg/mL solution, mean±s.e.m., read-out: level of the compound in plasma

{"COMPOUND STRUCTURE STRING": "Cc1cc(C(=O)N(C)C)cc(NC(=O)[C@H]2CCC(=O)N2C2CCN(Cc3ccc(Cl)c(C)c3)CC2)n1", "concentration at 4 weeks [nM]": 355}

---

Experiment: Compound cerebrospinal fluid levels in mice (mass spectroscopy)
Assay type: in vivo, C57BL/6 mice
Details: C57BL/6, mouse, cerebrospinal fluid, subcutaneous; 16.5-month-old old group; mass spectroscopy; read-out: level of Compound 1 in CSF
PROPERTY LABEL: concentration at 4 weeks

{"COMPOUND STRUCTURE STRING": "Cc1cc(C(=O)N(C)C)cc(NC(=O)[C@H]2CCC(=O)N2C2CCN(Cc3ccc(Cl)c(C)c3)CC2)n1", "OBSERVED": "< 10 nM"}
